Please provide measured INHIBITION for the entries that follow.
# System: Plasmodium berghei
# ASSAY REMARKS: Screen against P. berghei liver stage (PbLuc), transformed with Luciferase, at 10uM
# Type: functional, HepG2
# TEST CONDITIONS: tested at 10 uM
Hit rate of the full screen: of about 69,000 compounds, about 8,600 (12%) showed an effect of 50% or more. This excerpt belongs to a sample that is enriched for strong results.
# value in %; strip the unit string

Output INHIBITION of c1cc(CN2CCCC3(COCCN(Cc4c[nH]nn4)C3)C2)cs1 (stereo not drawn)
-4.88

Output INHIBITION of CCn1c(C)nnc1CN(C)C1CCN(CCS(=O)(=O)CC)C1 (stereo not drawn)
-49.5

Output INHIBITION of Cc1nc(C)n(CC2CN(Cc3ccccc3OC(C)C)CCO2)n1 (stereo not drawn)
26.5

Output INHIBITION of CC(c1nc(C2CC2)no1)N1CCN(Cc2noc(C3CC3)n2)CC1 (stereo not drawn)
51.1

Output INHIBITION of Cc1ccc(NC2CCN(C(=O)c3ccnc(N(C)C)c3)CC2)nn1
-115

Output INHIBITION of CO[C@H]1CCN(C(=O)c2ccc3[nH]nnc3c2)C[C@@]12CCCO2
5.34

Output INHIBITION of COCc1nc2cc(NCc3cc[nH]n3)ccc2o1
67.1

Output INHIBITION of CC(=O)c1ccc(S(=O)(=O)N2CCOC(Cn3ccnc3)C2)cc1 (stereo not drawn)
30.4

Output INHIBITION of CS(=O)(=O)NCCCNCc1cc(F)ccc1Br
30.2

Output INHIBITION of CC[C@H](C)[C@H](NC(=O)c1cccc(-n2cnnn2)c1)C(=O)OC
30.5

Output INHIBITION of CCC(C)[C@H](NC(=O)c1cc(F)ccc1-n1cnnn1)C(=O)OC (stereo partly drawn)
46.1

Output INHIBITION of COc1ccc(CN2CCCCC2Cn2nc(C)nc2C)cc1F (stereo not drawn)
-37.7

Output INHIBITION of CCC(C)[C@H](NC(=O)c1ccc(F)cc1-n1cnnn1)C(=O)OC (stereo partly drawn)
51.3

Output INHIBITION of CN1CCCC1CNC(=O)CCCOc1ccc(Br)cc1 (stereo not drawn)
-62.6

Output INHIBITION of Cc1ccsc1C(=O)N1CCC(Nc2cccnc2)CC1
-36.6

Output INHIBITION of O=c1[nH]c2nc(N3CCOCC3)ncc2c(=O)n1-c1cccc(F)c1
31.7

Output INHIBITION of CNC(=O)CN1CCOCC2(CCCN(Cc3ccoc3)C2)C1 (stereo not drawn)
-2.35

Output INHIBITION of Cc1cc(C(=O)NCCc2c(C)nn(C)c2C)nc(N2CCCCC2)n1
-10.5

Output INHIBITION of c1ncn(CC2CN(CC3CCCCC3)CCO2)n1 (stereo not drawn)
25.4

Output INHIBITION of CC(NS(N)(=O)=O)c1ccc(OCc2ccc(F)cc2)cc1 (stereo not drawn)
14.6

Output INHIBITION of COCc1nc2cc(NCc3sc(C)nc3C)ccc2o1
65.4

Output INHIBITION of CCC(N)c1ccccc1OCC(=O)N1CCCC1 (stereo not drawn)
-42.3

Output INHIBITION of Cn1nccc1-c1nnn2c1COC(CNCc1nccs1)C2 (stereo not drawn)
38.3

Output INHIBITION of Cc1nn(C)c2sc(C(=O)N3CCCC(n4ccnc4C)C3)cc12 (stereo not drawn)
28.4

Output INHIBITION of CN(Cc1ccc(Cl)s1)C(=O)Nc1ccc(N(C)C)nc1
58.8

Output INHIBITION of Cc1nc(CN(CCS(C)(=O)=O)C(C)C)cs1
53.6

Output INHIBITION of CC(C)c1noc(C(C)N2CCN(Cc3noc(C4CC4)n3)CC2)n1 (stereo not drawn)
27.6

Output INHIBITION of O=C(NC1CCCN(CCCc2ccccc2)C1)c1ccc(Cl)s1 (stereo not drawn)
35.1

Output INHIBITION of COCc1nc2cc(NCc3nc(C)cs3)ccc2o1
-17.6

Output INHIBITION of COCc1nc2cc(NCc3ccc(CO)o3)ccc2o1
90.2

Output INHIBITION of COCc1nc2cc(NCc3ccc(C)o3)ccc2o1
11.8

Output INHIBITION of CC(C)c1noc(CCCC(=O)N2CCN(Cc3ccccn3)CC2)n1
40

Output INHIBITION of CCC(C)CNc1ccc2oc(COC)nc2c1 (stereo not drawn)
-23.2

Output INHIBITION of O=C(NCCC1=CCCCC1)Nc1cc(C(F)(F)F)c[nH]c1=O
7.27

Output INHIBITION of c1cnc(N2CCO[C@H]3CN(Cc4csnn4)C[C@H]32)cn1
23.3

Output INHIBITION of O=C(CCc1cc(O)no1)N1CCCC(OCc2cccnc2)C1 (stereo not drawn)
23.6

Output INHIBITION of Cc1ccc(C2CN(c3nnc(C(F)F)s3)CCO2)c(C)c1 (stereo not drawn)
57.4

Output INHIBITION of CCCc1n[nH]c(C2CN(C(=O)c3ccc(C)[nH]c3=O)CCO2)n1 (stereo not drawn)
40.2

Output INHIBITION of CC[C@H](C)[C@H](NC(=O)c1ccccc1-n1cnnn1)C(=O)OC
-14.2

Output INHIBITION of CC(C)c1nc(CN2CCN(C(C)c3nc(C4CC4)no3)CC2)no1 (stereo not drawn)
13.5

Output INHIBITION of CCc1ccc(C(=O)O)cc1S(=O)(=O)N(C)c1cccc(C#N)c1
24.4

Output INHIBITION of Fc1ccc(CN2CCCC3(COCCN(Cc4c[nH]nn4)C3)C2)cc1 (stereo not drawn)
61.5

Output INHIBITION of Cc1[nH]c2cc(C3CCCCN3C(=O)C3CC3)nn2c(=O)c1C (stereo not drawn)
-3.02

Output INHIBITION of Cc1cccc(N(C)S(=O)(=O)c2cc(C(=O)O)cs2)c1
22.3

Output INHIBITION of CNC(=O)CN1CCOCC2(CCCN(Cc3ccsc3)C2)C1 (stereo not drawn)
-17.1

Output INHIBITION of COCc1nc2cc(NCc3csc(C)n3)ccc2o1
14.9

Output INHIBITION of CC(C)N(CCS(C)(=O)=O)Cc1csc(-c2ccccc2F)n1
33.2

Output INHIBITION of COCc1nc2cc(NCc3ccncc3)ccc2o1
18.5
